- System: NLRP3 (Homo sapiens, UniProt Q96P20)
- Sequence (Q96P20 whole entry): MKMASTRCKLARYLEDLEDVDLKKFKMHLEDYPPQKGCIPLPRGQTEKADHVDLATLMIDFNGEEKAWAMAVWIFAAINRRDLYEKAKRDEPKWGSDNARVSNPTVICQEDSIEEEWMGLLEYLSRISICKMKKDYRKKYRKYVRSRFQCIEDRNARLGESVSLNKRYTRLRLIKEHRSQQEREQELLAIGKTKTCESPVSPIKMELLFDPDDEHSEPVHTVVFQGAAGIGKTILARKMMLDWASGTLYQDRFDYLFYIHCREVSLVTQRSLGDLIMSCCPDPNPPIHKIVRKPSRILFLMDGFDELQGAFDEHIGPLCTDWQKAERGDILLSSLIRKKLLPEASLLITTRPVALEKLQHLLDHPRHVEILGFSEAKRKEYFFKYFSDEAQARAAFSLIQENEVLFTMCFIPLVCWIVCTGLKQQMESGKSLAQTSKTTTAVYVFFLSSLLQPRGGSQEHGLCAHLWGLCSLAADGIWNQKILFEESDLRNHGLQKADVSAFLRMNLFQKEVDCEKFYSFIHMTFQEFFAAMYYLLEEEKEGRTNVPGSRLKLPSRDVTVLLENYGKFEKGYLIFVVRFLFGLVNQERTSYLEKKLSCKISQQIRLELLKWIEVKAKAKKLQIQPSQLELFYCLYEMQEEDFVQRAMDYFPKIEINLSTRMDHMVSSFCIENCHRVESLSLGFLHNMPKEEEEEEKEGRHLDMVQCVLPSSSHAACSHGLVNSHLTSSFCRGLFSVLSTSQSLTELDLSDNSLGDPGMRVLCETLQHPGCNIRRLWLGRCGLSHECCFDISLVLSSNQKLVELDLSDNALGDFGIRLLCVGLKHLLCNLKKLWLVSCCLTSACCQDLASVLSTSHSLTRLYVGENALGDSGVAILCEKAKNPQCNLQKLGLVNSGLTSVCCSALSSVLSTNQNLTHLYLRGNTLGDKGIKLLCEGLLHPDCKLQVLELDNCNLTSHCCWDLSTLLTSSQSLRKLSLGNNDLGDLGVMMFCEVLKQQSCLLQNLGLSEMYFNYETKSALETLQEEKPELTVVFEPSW
- Assay Info: Human whole blood IL-1β release assay (LPS + nigericin, AlphaLisa)
- Format: cell-based
- Set-up: Human whole blood in Li-heparin tubes was obtained from healthy donors; from tissue; host or cells: human whole blood from healthy donors
- Test Context: NLRP3 inhibitory activity, 1 μg/ml LPS, 10 μM nigericin, read-out: HWB IC50
pIC50: −log10 of the molar value. Counter-ions that a name gives are not always drawn.
Collected pIC50 values appear next to each entry.

* Cc1cc(CN(C)C)cc(S(=O)(=O)NC(=O)Nc2c3c(cc4c2CCC4)CCC3)c1 [Example 57, sodium salt] | 5.30 to 6.00
* CC(C)n1ccc(S(=O)(=O)NC(=O)Nc2cc(Br)ccc2Sc2nnnn2C)n1 [Example 28] | 5.00 to 5.30
* COC(C)(C)c1cc(S(=O)(=O)NC(=O)Nc2c3c(cc4c2CCC4)CCC3)nn1C [Example 39] | 6.00 to 6.30
* O=C(Nc1c2c(cc3c1CCC3)CCC2)NS(=O)(=O)c1ccn(CC(F)F)n1 [Example 63, sodium salt] | 5.30 to 6.00
* CC(C)(CN1CCCC1)n1ccc(S(=O)(=O)NC(=O)Nc2c3c(cc4c2CCC4)CCC3)n1 [Example 65, sodium salt] | 6.30 to 6.60

Exercise: Given the compound CC(C)c1cc(F)cc2c1C(C(=O)NS(=O)(=O)c1cc(C(C)(C)O)cs1)CC2(C)C (single isomer, unassigned) [Example 8] , what is its reported pIC50?
Key: 5.30 to 6.00

Exercise: Given the compound O=C(Nc1c2c(cc3c1CCC3)CCC2)NS(=O)(=O)c1ccn(CC(F)(F)F)n1 [Example 42] , what is its reported pIC50?
Key: 5.30 to 6.00
